EC50 overview
- Tested on: Human immunodeficiency virus 1
- experiment: Antiviral activity against HIV1
- Type: functional, organism-based
The answer is to be given in nM; state only the numeric part.

The following compounds have reported results that may help.
C=C(C)[C@@H]1CC[C@]2(C(=O)O)CC[C@]3(C)[C@H](CC[C@@H]4[C@@]5(C)CC[C@H](OC(=O)CC(C)(C)C(=O)O)C(C)(C)[C@@H]5CC[C@]43C)[C@@H]12 [BEVIRIMAT] = 1.3
Cc1cn([C@H]2C[C@H](N=[N+]=[N-])[C@@H](CO)O2)c(=O)[nH]c1=O [ZIDOVUDINE] = 340
C=C(C)[C@@H]1CC[C@]2(C(=O)O)CC[C@]3(C)[C@H](CC[C@@H]4[C@@]5(C)CC[C@H](OC(=O)CC(C)C(=O)O)C(C)(C)[C@@H]5CC[C@]43C)[C@@H]12 (stereo partly specified) = 16
C=C(C)[C@@H]1CC[C@]2(C(=O)O)CC[C@]3(C)[C@H](CC[C@@H]4[C@@]5(C)CC[C@H](OC(=O)C[C@@H](C)C(=O)O)C(C)(C)[C@@H]5CC[C@]43C)[C@@H]12 = 120

Task: Given `C=C(C)[C@@H]1CC[C@]2(C(=O)O)CC[C@]3(C)[C@H](CC[C@@H]4[C@@]5(C)CC[C@H](OC(=O)[C@@H](C)CC(=O)O)C(C)(C)[C@@H]5CC[C@]43C)[C@@H]12` , respond with its EC50.
Result: 440

Task: Given `C=C(C)[C@@H]1CC[C@]2(C(=O)O)CC[C@]3(C)[C@H](CC[C@@H]4[C@@]5(C)CC[C@H](OC(=O)C[C@H](C)C(=O)O)C(C)(C)[C@@H]5CC[C@]43C)[C@@H]12` , respond with its EC50.
Result: 8.7

* * *

- experiment: Therapeutic index, ratio of IC50 for MT2 cells to EC50 for HIV1
- Type: cell-based
- condition.label: human, read-out: Ratio IC50/EC50
Response field label: string, one of class 1 (selectivity ratio strictly below 1000) or class 0.

C=C(C)[C@@H]1CC[C@]2(C(=O)O)CC[C@]3(C)[C@H](CC[C@@H]4[C@@]5(C)CC[C@H](OC(=O)CC(C)C(=O)O)C(C)(C)[C@@H]5CC[C@]43C)[C@@H]12 (stereo not given in full) = class 0
C=C(C)[C@@H]1CC[C@]2(C(=O)O)CC[C@]3(C)[C@H](CC[C@@H]4[C@@]5(C)CC[C@H](OC(=O)[C@@H](C)CC(=O)O)C(C)(C)[C@@H]5CC[C@]43C)[C@@H]12 = class 1
C=C(C)[C@@H]1CC[C@]2(C(=O)O)CC[C@]3(C)[C@H](CC[C@@H]4[C@@]5(C)CC[C@H](OC(=O)C[C@@H](C)C(=O)O)C(C)(C)[C@@H]5CC[C@]43C)[C@@H]12 = class 1

Task: Bench note: check whether C=C(C)[C@@H]1CC[C@]2(C(=O)O)CC[C@]3(C)[C@H](CC[C@@H]4[C@@]5(C)CC[C@H](OC(=O)CC(C)(C)C(=O)O)C(C)(C)[C@@H]5CC[C@]43C)[C@@H]12 [BEVIRIMAT] shows selectivity ratio below 1000
Result: class 0

Task: Bench note: check whether `C=C(C)[C@@H]1CC[C@]2(C(=O)O)CC[C@]3(C)[C@H](CC[C@@H]4[C@@]5(C)CC[C@H](OC(=O)C[C@H](C)C(=O)O)C(C)(C)[C@@H]5CC[C@]43C)[C@@H]12` shows selectivity ratio below 1000
Result: class 0
